assay: MDA-MB-231 cell viability (CellTiter 96 AQuous One); assay type: cell-based, human; conditions: human, MDA-MB-231 human breast cancer cells; MDA-MB-231 cells, incubated two days, apoEdp about 6 to about 300 μM; read-out: 50% cytotoxic dose
Where no end group is shown, it is not given here.
measured-quantity: CC50 at 48 h

Which CC50 at 48 h value belongs to LRKLRKRLLLRKLRKRLL [apoEdp] ?
> 300 µM

* * *

conditions: human, human umbilical vein endothelial cells (HUVECs)
Where no end group is shown, it is not given here.
measured-quantity: CC50 at 48 h

Which CC50 at 48 h value belongs to LRKLRKRLLLRKLRKRLL [apoEdp] ?
~103 µM

src = patent US20120053128A1
